# Test system: colon (HCT-116), cervical (HeLa), and renal (RFX393) tumor cell lines
# RUN_DESCRIPTION: MTT antiproliferative assay, all three tumor cell lines
# Assay type: cell-based
# RECORDED_CONDITIONS: HCT-116, HeLa, RFX393; summary of Table 3; read-out: GI50 values against all three tumor cell lines
# Experimental: Briefly, the tumor cells (1×10^4 cells/well) were seeded in 96-well microtiter plates and incubated for 24 h at 37° C. […] After aspirating the culture medium, 200 μL of DMSO was added to dissolve the precipitate and the resulting solution was measured for absorbance at 570 nm with a reference wavelength of 690 nm using a microplate reader (Infinite M200 Pro TECAN).
Could you please report measured GI50 for the items listed next?
Answers are plain numbers, in nM.

CSCC[C@H]1NC(=O)CC(O)/C=C/CCSSC[C@H](C(=O)O)NC1=O (some centres unmarked) : 600
COC(=O)[C@H]1CSSCC/C=C/C(O)CC(=O)N[C@H](CCSC)C(=O)N1 (some centres unmarked) : 400

Please examine the following record next.
In: Item under review: CCCC[C@H](NC(=O)CC(O)/C=C/CCS)C(=O)O (some centres unmarked) . Reported GI50?
Out: 500

====

# TARGET_SYSTEM: Recombinant human HDAC1 (Homo sapiens, UniProt Q13547)
# Construct: purchased BPS Bioscience Inc
# Sequence (Q13547 whole entry): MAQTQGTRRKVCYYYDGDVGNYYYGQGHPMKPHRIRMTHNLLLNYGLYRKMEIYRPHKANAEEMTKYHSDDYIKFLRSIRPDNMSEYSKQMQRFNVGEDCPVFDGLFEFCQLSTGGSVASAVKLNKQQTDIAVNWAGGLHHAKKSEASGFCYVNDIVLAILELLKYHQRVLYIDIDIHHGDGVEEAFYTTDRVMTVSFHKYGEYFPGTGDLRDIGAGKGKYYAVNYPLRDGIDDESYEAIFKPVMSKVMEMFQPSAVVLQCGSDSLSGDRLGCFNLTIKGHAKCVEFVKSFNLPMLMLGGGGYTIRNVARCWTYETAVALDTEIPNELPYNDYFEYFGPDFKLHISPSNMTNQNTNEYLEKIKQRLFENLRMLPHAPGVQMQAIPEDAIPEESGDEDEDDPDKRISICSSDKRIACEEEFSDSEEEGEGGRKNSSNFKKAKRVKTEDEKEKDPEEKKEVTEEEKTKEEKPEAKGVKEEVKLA
# RUN_DESCRIPTION: HDAC-Glo I/II assay, HDAC1
# Assay type: biochemical
# RECORDED_CONDITIONS: Class I HDAC; compounds reduced by TCEP prior to assay; read-out: IC50 of HDAC1
PROPERTY_LABEL: pIC50
Give bare numbers, as −log10 of the molar value.

Would you please look over these solved cases?
CSCC[C@H]1NC(=O)CC(O)/C=C/CCSSC[C@H](C(=O)O)NC1=O (stereo partly drawn) [TDF3] : 7.64
CCCC[C@H](NC(=O)CC(O)/C=C/CCS)C(=O)O (stereo partly drawn) [TDF5] : 8.59

Please examine the following record next.
In: Item under review: CC(C)[C@H](NC(=O)CC(O)/C=C/CCS)C(=O)O (stereo partly drawn) [TDF6] . Reported pIC50?
Out: 8.46
